Molecular target: Histamine H1 receptor (Rattus norvegicus, UniProt P31390)
Sequence (P31390 whole entry): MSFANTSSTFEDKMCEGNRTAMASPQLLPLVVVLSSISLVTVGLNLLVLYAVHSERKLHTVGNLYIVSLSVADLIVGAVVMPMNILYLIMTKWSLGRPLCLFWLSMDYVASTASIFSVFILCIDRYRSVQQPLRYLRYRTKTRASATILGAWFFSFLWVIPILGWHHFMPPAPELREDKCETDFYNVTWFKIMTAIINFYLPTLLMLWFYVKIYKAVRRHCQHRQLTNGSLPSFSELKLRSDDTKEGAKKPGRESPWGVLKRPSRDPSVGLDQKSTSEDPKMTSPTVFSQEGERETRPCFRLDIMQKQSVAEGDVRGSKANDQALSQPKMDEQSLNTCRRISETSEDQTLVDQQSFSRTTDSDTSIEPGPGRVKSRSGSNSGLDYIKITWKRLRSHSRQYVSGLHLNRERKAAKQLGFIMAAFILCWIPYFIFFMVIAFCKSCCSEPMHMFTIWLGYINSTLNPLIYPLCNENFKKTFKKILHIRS
Quantity Kind: IC50

1. CN1CCN(C2=Nc3ccccc3Oc3ccc(OS(=O)(=O)C(F)(F)F)cc32)CC1; 120 nM

---

Measured IC50 accompanies every entry in the list below.
Molecular target: D(4) dopamine receptor (Homo sapiens)
Sequence (P21917 whole entry): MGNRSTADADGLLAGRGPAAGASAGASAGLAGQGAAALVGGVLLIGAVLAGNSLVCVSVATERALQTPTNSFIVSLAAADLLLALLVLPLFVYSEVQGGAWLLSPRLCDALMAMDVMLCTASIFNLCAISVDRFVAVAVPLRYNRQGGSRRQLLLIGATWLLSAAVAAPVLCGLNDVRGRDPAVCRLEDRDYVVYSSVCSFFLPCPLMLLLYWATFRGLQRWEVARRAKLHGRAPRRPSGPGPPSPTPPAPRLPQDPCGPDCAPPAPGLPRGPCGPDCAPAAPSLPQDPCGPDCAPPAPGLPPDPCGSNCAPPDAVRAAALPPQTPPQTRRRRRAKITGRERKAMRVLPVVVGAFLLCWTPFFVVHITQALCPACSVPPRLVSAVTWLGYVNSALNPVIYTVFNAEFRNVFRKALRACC
Test: Binding affinity towards human D4.2 receptor
Quantity Kind: IC50

1. CN1CCN(C2=Nc3ccccc3Nc3ccc(OS(=O)(=O)C(F)(F)F)cc32)CC1; 120 nM
2. CN1CCN(C2=Nc3ccccc3Nc3ccc(Cl)cc32)CC1; 110 nM
3. CN1CCN(C2=Nc3ccccc3Sc3ccc(OS(=O)(=O)C(F)(F)F)cc32)CC1; 570 nM
4. CN1CCN(C2=Nc3ccccc3Oc3ccc(OS(=O)(=O)C(F)(F)F)cc32)CC1; 150 nM
5. CN1CCN(C2=Nc3cc(Cl)ccc3Nc3ccc(OS(=O)(=O)C(F)(F)F)cc32)CC1; 490 nM

Data credit: ChEMBL document CHEMBL1132638
